Cited source for all entries: patent US20240018502A1

Catalogue of EC50 hC3 cleavage readings, one per entry.
# Experimental System: plasma purified human complement protein C3 (human) (UniProt P01024)
# Sequence (P01024 23-667, chain 1 of 2): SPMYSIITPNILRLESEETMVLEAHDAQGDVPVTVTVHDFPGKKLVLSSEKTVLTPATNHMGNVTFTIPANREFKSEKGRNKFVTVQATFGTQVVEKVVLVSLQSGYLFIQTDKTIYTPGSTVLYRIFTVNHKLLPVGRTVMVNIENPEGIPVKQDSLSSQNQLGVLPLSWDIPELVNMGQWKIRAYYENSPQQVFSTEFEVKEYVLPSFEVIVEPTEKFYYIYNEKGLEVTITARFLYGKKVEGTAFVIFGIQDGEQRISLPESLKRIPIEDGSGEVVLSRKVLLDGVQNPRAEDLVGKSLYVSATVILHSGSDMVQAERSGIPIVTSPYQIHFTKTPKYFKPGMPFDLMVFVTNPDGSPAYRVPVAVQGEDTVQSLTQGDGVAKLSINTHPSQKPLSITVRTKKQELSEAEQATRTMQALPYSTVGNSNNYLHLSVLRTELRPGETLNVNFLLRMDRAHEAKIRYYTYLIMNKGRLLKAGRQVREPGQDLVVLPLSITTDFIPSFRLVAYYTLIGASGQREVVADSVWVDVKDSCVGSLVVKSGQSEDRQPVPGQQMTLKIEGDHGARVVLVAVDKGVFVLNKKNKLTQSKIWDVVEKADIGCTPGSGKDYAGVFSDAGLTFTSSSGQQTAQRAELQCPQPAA
# Sequence (P01024 672-1663, chain 2 of 2): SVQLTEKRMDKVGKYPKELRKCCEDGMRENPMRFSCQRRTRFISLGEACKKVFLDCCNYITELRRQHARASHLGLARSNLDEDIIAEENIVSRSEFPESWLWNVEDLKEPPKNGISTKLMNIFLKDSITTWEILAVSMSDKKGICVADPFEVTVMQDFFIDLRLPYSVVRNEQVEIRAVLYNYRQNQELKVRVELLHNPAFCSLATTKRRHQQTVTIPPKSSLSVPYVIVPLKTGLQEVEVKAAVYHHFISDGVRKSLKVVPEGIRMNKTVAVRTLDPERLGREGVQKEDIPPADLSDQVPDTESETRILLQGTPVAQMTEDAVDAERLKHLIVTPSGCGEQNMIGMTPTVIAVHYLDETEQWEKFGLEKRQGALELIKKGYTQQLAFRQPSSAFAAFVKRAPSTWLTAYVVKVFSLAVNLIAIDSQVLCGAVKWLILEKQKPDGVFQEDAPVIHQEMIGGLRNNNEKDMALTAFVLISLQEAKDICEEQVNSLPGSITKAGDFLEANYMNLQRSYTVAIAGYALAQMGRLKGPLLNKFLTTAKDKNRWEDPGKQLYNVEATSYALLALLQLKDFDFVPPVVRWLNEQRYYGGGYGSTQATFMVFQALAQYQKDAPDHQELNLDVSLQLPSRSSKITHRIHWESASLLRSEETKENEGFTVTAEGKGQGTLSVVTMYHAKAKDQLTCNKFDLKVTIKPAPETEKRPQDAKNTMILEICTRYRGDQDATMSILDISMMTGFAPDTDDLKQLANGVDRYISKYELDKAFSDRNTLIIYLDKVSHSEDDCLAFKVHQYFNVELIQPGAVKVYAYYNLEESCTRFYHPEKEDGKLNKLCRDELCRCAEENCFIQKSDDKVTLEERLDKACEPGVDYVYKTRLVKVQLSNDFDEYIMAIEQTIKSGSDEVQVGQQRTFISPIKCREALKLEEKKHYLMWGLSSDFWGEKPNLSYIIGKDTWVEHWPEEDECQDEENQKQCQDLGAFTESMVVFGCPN
# Run Description: cell-based or functional assay

Binder	EC50 hC3 cleavage / nM
MTSP-1 protease domain Q38H/I41A/D60bV/F60eR/Y60gW/D96I/F97N/T98G/F99L/C122S/G151H/Q175L/Q192D (enzyme) VVGGTDADEGEWPWQVSLHALGHGHACGASLISPNWLVSAAHCYIDVRGRRWSDPTQWTAFLGLHDQSQRSAPGVQERRLKRIISHPFFNINGLDYDIALLELEKPAEYSSMVRPISLPDASHVFPAGKAIWVTGWGHTQYGGTHALILQKGEIRVINQTTCENLLPQLITPRMMCVGFLSGGVDSCDGDSGGPLSSVEADGRIFQAGVVSWGDGCAQRNKPGVYTRLPLFRDWIKENTGV	2.52
MTSP-1 protease domain I41D/F97R/F99L/C122S/Q175L/Q192T/D217I (enzyme) VVGGTDADEGEWPWQVSLHALGQGHDCGASLISPNWLVSAAHCYIDDRGFRYSDPTQWTAFLGLHDQSQRSAPGVQERRLKRIISHPFFNDRTLDYDIALLELEKPAEYSSMVRPISLPDASHVFPAGKAIWVTGWGHTQYGGTGALILQKGEIRVINQTTCENLLPQLITPRMMCVGFLSGGVDSCTGDSGGPLSSVEADGRIFQAGVVSWGIGCAQRNKPGVYTRLPLFRDWIKENTGV	5.72
MTSP-1 protease domain I41E/F99L/C122S/G151N/Q175L/Q192A (enzyme) VVGGTDADEGEWPWQVSLHALGQGHECGASLISPNWLVSAAHCYIDDRGFRYSDPTQWTAFLGLHDQSQRSAPGVQERRLKRIISHPFFNDFTLDYDIALLELEKPAEYSSMVRPISLPDASHVFPAGKAIWVTGWGHTQYGGTNALILQKGEIRVINQTTCENLLPQLITPRMMCVGFLSGGVDSCAGDSGGPLSSVEADGRIFQAGVVSWGDGCAQRNKPGVYTRLPLFRDWIKENTGV	28.5
MTSP-1 protease domain Q38E/I41S/D60bW/F60eG/D96M/F97N/T98G/F99L/C122S/G151N/Q175L/Q192D (enzyme) VVGGTDADEGEWPWQVSLHALGEGHSCGASLISPNWLVSAAHCYIDWRGGRYSDPTQWTAFLGLHDQSQRSAPGVQERRLKRIISHPFFNMNGLDYDIALLELEKPAEYSSMVRPISLPDASHVFPAGKAIWVTGWGHTQYGGTNALILQKGEIRVINQTTCENLLPQLITPRMMCVGFLSGGVDSCDGDSGGPLSSVEADGRIFQAGVVSWGDGCAQRNKPGVYTRLPLFRDWIKENTGV	22.3
MTSP-1 protease domain I41S/F99L/C122S/G151N/Q175P (enzyme) VVGGTDADEGEWPWQVSLHALGQGHSCGASLISPNWLVSAAHCYIDDRGFRYSDPTQWTAFLGLHDQSQRSAPGVQERRLKRIISHPFFNDFTLDYDIALLELEKPAEYSSMVRPISLPDASHVFPAGKAIWVTGWGHTQYGGTNALILQKGEIRVINQTTCENLLPQPITPRMMCVGFLSGGVDSCQGDSGGPLSSVEADGRIFQAGVVSWGDGCAQRNKPGVYTRLPLFRDWIKENTGV	13.9
MTSP-1 protease domain I41S/D60bY/ins97aV/A112V/C122S/Q192G/Q209L (enzyme) VVGGTDADEGEWPWQVSLHALGQGHSCGASLISPNWLVSAAHCYIDYRGFRYSDPTQWTAFLGLHDQSQRSAPGVQERRLKRIISHPFFNDFVTFDYDIALLELEKPVEYSSMVRPISLPDASHVFPAGKAIWVTGWGHTQYGGTGALILQKGEIRVINQTTCENLLPQQITPRMMCVGFLSGGVDSCGGDSGGPLSSVEADGRIFLAGVVSWGDGCAQRNKPGVYTRLPLFRDWIKENTGV	4.76
MTSP-1 protease domain Q38H/I41S/D60bT/F60eS/Y60gW/D96L/ins97aG/F97D/T98N/F99L/C122S/G151H/Q175L/Q192E (enzyme) VVGGTDADEGEWPWQVSLHALGHGHSCGASLISPNWLVSAAHCYIDTRGSRWSDPTQWTAFLGLHDQSQRSAPGVQERRLKRIISHPFFNLDGNLDYDIALLELEKPAEYSSMVRPISLPDASHVFPAGKAIWVTGWGHTQYGGTHALILQKGEIRVINQTTCENLLPQLITPRMMCVGFLSGGVDSCEGDSGGPLSSVEADGRIFQAGVVSWGDGCAQRNKPGVYTRLPLFRDWIKENTGV	1.59
MTSP-1 protease domain Q38M/I41S/F60eH/Y60gW/D96Y/F97N/T98G/F99L/C122S/G151N/Q175L/Q192D (enzyme) VVGGTDADEGEWPWQVSLHALGMGHSCGASLISPNWLVSAAHCYIDDRGHRWSDPTQWTAFLGLHDQSQRSAPGVQERRLKRIISHPFFNYNGLDYDIALLELEKPAEYSSMVRPISLPDASHVFPAGKAIWVTGWGHTQYGGTNALILQKGEIRVINQTTCENLLPQLITPRMMCVGFLSGGVDSCDGDSGGPLSSVEADGRIFQAGVVSWGDGCAQRNKPGVYTRLPLFRDWIKENTGV	21.6
MTSP-1 protease domain I41R/F97T/F99L/C122S/G151N/Q175T/Q192T/D217I (enzyme) VVGGTDADEGEWPWQVSLHALGQGHRCGASLISPNWLVSAAHCYIDDRGFRYSDPTQWTAFLGLHDQSQRSAPGVQERRLKRIISHPFFNDTTLDYDIALLELEKPAEYSSMVRPISLPDASHVFPAGKAIWVTGWGHTQYGGTNALILQKGEIRVINQTTCENLLPQTITPRMMCVGFLSGGVDSCTGDSGGPLSSVEADGRIFQAGVVSWGIGCAQRNKPGVYTRLPLFRDWIKENTGV	159
MTSP-1 protease domain Q38H/I41A/D60bV/F60eR/Y60gW/D96Q/F97E/ins97aD/T98S/F99L/C122S/G151N/Q175L/Q192R (enzyme) VVGGTDADEGEWPWQVSLHALGHGHACGASLISPNWLVSAAHCYIDVRGRRWSDPTQWTAFLGLHDQSQRSAPGVQERRLKRIISHPFFNQEDSLDYDIALLELEKPAEYSSMVRPISLPDASHVFPAGKAIWVTGWGHTQYGGTNALILQKGEIRVINQTTCENLLPQLITPRMMCVGFLSGGVDSCRGDSGGPLSSVEADGRIFQAGVVSWGDGCAQRNKPGVYTRLPLFRDWIKENTGV	4.6
